Could you please report measured solubility for the items listed next?
procedure.details: Solubility of the compound in water
Format: physicochemical

The cases that follow already have their solubility on record.
>  <compound>
CC(C)(C)c1[nH]cnc1/C=c1\[nH]c(=O)/c(=C/c2ccccc2)nc1OCOC(=O)CCCc1cn([C@@H](CO)C(=O)[O-])nn1.[Na+]

>  <result>
6380 µg/mL

$$$$
>  <compound>
O=C(c1ccccc1)c1cccc(/C=c2\[nH]c(=O)/c(=C/c3ccccn3)[nH]c2=O)c1

>  <result>
< 0.1 µg/mL

$$$$

Query compound follows.
Problem: Given CC(C)(C)c1[nH]cnc1/C=c1\[nH]c(=O)/c(=C/c2ccccc2)[nH]c1=O [PLINABULIN] , state its recorded solubility.
Solution: < 0.1 µg/mL

* * *

target.system: Liver carboxylesterase (Sus scrofa)
procedure.details: Drug metabolism assessed as porcine liver carboxylic-ester hydrolase-mediated compound hydrolysis by measuring half-life at 500 ug by HPLC analysis
Type: ADME
conditions.used: pig, porcine liver carboxylic-ester hydrolase (liver esterase)
measure.name: half-life (min)
Give bare numbers, in min.

Problem: Given "CC(C)(C)c1[nH]cnc1/C=c1\[nH]c(=O)/c(=C/c2ccccc2)nc1OCOC(=O)CCCc1cn(C[C@H](O)CC(=O)[O-])nn1.[Na+]" , state its recorded half-life.
Solution: 22.2

* * *

target.system: Liver carboxylesterase (Sus scrofa, UniProt Q29550)
procedure.details: Stability of the compound assessed as porcine liver esterase-mediated hydrolysis by measuring compound remaining after 48 hrs by HPLC method
Assay type: ADME
conditions.used: pig, read-out: Stability
measure.name: remaining at 48 h (%)
Numbers only, in %.

Problem: Notebook: pull reported remaining at 48 h for Liver carboxylesterase (Sus scrofa, UniProt Q29550), entry O=C(O)CC(C(=O)O)n1cc(CCCC(=O)OCOc2n/c(=C\c3cccc(C(=O)c4ccccc4)c3)c(=O)[nH]/c2=C\c2ccccn2)nn1 (single isomer, unassigned)
Solution: 20

* * *

target.system: Liver carboxylesterase (Sus scrofa, UniProt Q29550)
Sequence (Q29550 whole entry): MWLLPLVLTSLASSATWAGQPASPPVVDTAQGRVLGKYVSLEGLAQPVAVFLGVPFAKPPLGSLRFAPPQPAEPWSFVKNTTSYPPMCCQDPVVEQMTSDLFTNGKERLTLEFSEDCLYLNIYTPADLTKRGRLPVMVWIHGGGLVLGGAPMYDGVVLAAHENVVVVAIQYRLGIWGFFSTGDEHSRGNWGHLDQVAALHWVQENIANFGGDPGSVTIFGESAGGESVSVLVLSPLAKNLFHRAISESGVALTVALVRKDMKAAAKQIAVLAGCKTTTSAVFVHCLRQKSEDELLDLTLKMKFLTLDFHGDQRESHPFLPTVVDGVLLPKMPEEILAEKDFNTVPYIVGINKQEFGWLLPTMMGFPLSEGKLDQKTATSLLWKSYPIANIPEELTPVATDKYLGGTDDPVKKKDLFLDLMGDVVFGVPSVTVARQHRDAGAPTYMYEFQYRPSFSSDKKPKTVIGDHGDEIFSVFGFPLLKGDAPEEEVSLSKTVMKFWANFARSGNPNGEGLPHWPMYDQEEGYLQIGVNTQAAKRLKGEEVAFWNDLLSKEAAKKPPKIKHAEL
procedure.details: Drug metabolism assessed as porcine liver carboxylic-ester hydrolase-mediated compound hydrolysis by measuring half-life by HPLC analysis
Format: ADME
conditions.used: pig, porcine liver carboxylic-ester hydrolase (liver esterase)
Could you please report measured half-life for the items listed next?
Numbers only, in h.

The cases that follow already have their half-life on record.
>  <compound>
CC(C)(C)c1[nH]cnc1/C=c1\[nH]c(=O)/c(=C/c2ccccc2)nc1OCOC(=O)CCCc1cn([C@H](CCC(=O)[O-])C(=O)[O-])nn1.[Na+].[Na+]

>  <target.system>
Liver carboxylesterase (Sus scrofa, UniProt Q29550)

>  <half-life [h]>
9

$$$$
>  <compound>
CC(C)(C)c1[nH]cnc1/C=c1\[nH]c(=O)/c(=C/c2ccccc2)nc1OCOC(=O)CCCc1cn([C@@H](CCC(=O)[O-])C(=O)[O-])nn1.[Na+].[Na+]

>  <target.system>
Liver carboxylesterase (Sus scrofa, UniProt Q29550)

>  <half-life [h]>
5.4

$$$$
>  <compound>
CC(C)(C)c1[nH]cnc1/C=c1\[nH]c(=O)/c(=C/c2ccccc2)nc1OCOC(=O)CCCc1cn([C@@H](CO)C(=O)[O-])nn1.[Na+]

>  <target.system>
Liver carboxylesterase (Sus scrofa, UniProt Q29550)

>  <half-life [h]>
1

$$$$
>  <compound>
O=C(O)CC(C(=O)O)n1cc(CCCC(=O)OCOc2n/c(=C\c3cccc(C(=O)c4ccccc4)c3)c(=O)[nH]/c2=C\c2ccccn2)nn1 (single isomer, unassigned)

>  <target.system>
Liver carboxylesterase (Sus scrofa, UniProt Q29550)

>  <half-life [h]>
8.7

$$$$

Problem: Given "CC(C)(C)c1[nH]cnc1/C=c1\[nH]c(=O)/c(=C/c2ccccc2)nc1OCOC(=O)CCCc1cn([C@@H](CC(=O)[O-])C(=O)[O-])nn1.[Na+].[Na+]" , state its recorded half-life.
Solution: 12
